Reference source: ChEMBL document CHEMBL2057173

Recorded Emax by entry
Target entity: Glucose-dependent insulinotropic receptor (Mus musculus) (UniProt Q7TQP3)
Sequence (Q7TQP3 whole entry): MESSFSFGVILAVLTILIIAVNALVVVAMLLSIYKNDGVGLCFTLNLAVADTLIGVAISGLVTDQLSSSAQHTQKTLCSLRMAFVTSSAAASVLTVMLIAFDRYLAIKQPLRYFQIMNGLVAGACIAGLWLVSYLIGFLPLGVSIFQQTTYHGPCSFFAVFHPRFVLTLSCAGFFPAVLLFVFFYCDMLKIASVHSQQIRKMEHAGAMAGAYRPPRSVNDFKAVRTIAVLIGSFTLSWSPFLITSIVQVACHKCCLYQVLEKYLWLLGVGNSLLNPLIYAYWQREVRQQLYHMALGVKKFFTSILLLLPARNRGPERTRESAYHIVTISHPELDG
Assay info: Agonist activity at mouse GPR119 receptor expressed in CHO-K1 cells assessed as cAMP accumulation after 30 mins by HTRF assay relative to AR231453
Format: functional, cell-based
Give the number; % is assumed, so skip it.

Answered examples (2):
- CC(C)c1nnc(N2CCC(CCCNc3ccc4c(c3)OCC4=O)CC2)o1: 88
- CC(C)(C)OC(=O)N1CCC(CCCNc2ccc3c(c2)C(=O)NC3)CC1: 97

Answer with the recorded Emax for the compound listed here: CC(C)(C)OC(=O)N1CCC(CCCNc2ccc3c(c2)C(=O)CCO3)CC1
108

Consider the compound COc1cnc(N2CCC(CCCNc3ccc4c(c3)OCC4=O)CC2)nc1 . State its measured Emax.
106

Tell me Emax reported for CC(C)(C)OC(=O)N1CCC(CCCNc2ccc3c(c2)CNC3=O)CC1
102

Please indicate Emax recorded for CC(C)(C)OC(=O)N1CCC(CCCNc2ccc3c(c2)C(=O)CO3)CC1
116

Give the reported value of Emax for this record: CC(C)(C)OC(=O)N1CCC(CCCNc2ccc3c(c2)OCS3(=O)=O)CC1
105

Determine from records and report Emax for CC(C)c1nsc(N2CCC(CCCNc3ccc4c(c3)OCC4=O)CC2)n1
93

Note Emax for the compound shown: CC(C)(C)OC(=O)N1CCC(CCCNc2ccc3c(c2)OCC3=O)CC1
108

Specify Emax for CCc1cnc(N2CCC(CCCNc3ccc4c(c3)OCC4=O)CC2)nc1 and stop.
98

###

Target entity: Glucose-dependent insulinotropic receptor (Homo sapiens)
Sequence (Q8TDV5 whole entry): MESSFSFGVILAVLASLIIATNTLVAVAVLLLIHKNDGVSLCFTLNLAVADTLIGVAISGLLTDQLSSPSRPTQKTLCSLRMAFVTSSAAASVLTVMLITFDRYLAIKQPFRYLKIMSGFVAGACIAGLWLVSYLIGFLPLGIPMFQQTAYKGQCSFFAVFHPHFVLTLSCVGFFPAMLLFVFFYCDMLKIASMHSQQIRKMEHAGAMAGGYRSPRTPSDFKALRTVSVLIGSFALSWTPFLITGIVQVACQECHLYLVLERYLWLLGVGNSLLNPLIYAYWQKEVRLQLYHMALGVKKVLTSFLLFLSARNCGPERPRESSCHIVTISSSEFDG
Assay info: Agonist activity at human GPR119 receptor expressed in CHO-K1 cells assessed as cAMP accumulation after 30 mins by HTRF assay
Measured parameter: pEC50
For clarity, pEC50 is expressed as the negative log10 of concentration in mol/L.

Illustrative cases are given below, each with its answer.
• CC(C)(C)OC(=O)N1CCC(CCCNc2ccc3c(c2)NNS3(=O)=O)CC1 = 6.57
• COC(=O)c1cnc(N2CCC(CCCNc3ccc4c(c3)OCC4=O)CC2)nc1 = 6.83
• CC(C)(C)OC(=O)N1CCC(CCCNc2ccc3c(c2)OCS3(=O)=O)CC1 = 6.60

Would you please give the reported pEC50 of CC(C)c1nnc(N2CCC(CCCNc3ccc4c(c3)OCC4=O)CC2)o1 with Glucose-dependent insulinotropic receptor (Homo sapiens)?
6.15

Consider the compound CC(C)(C)OC(=O)N1CCC(CCCCCNc2ccc3c(c2)CCS3(=O)=O)CC1 tested on Glucose-dependent insulinotropic receptor (Homo sapiens); state its pEC50.
6.84

###

compounds and their reported Emax
Target entity: Glucose-dependent insulinotropic receptor (Homo sapiens)
Assay info: Agonist activity at human GPR119 receptor expressed in CHO-K1 cells assessed as cAMP accumulation after 30 mins by HTRF assay relative to AR231453
Assay type: functional, cell-based
State the answer as a number, implicitly in %.

Reference set (4 entries):
* CC(C)(C)OC(=O)N1CCC(CCCNc2ccc3c(c2)CCC3=O)CC1 | 85
* CC(C)(C)OC(=O)N1CCC(CCCNc2ccc3c(c2)C(=O)CC3)CC1 | 98
* CC(C)c1nc(N2CCC(CCCNc3ccc4c(c3)OCC4=O)CC2)no1 | 91
* CC(C)(C)OC(=O)N1CCC(OCCNc2ccc3c(c2)CCS3(=O)=O)CC1 | 33

With Glucose-dependent insulinotropic receptor (Homo sapiens) as the test system, provide measured Emax for this compound: CC(C)c1noc(N2CCC(CCCNc3ccc4c(c3)OCC4=O)CC2)n1
94
